measurement_target: Solute carrier family 22 member 12 (Homo sapiens, UniProt Q96S37)
Sequence (Q96S37 whole entry): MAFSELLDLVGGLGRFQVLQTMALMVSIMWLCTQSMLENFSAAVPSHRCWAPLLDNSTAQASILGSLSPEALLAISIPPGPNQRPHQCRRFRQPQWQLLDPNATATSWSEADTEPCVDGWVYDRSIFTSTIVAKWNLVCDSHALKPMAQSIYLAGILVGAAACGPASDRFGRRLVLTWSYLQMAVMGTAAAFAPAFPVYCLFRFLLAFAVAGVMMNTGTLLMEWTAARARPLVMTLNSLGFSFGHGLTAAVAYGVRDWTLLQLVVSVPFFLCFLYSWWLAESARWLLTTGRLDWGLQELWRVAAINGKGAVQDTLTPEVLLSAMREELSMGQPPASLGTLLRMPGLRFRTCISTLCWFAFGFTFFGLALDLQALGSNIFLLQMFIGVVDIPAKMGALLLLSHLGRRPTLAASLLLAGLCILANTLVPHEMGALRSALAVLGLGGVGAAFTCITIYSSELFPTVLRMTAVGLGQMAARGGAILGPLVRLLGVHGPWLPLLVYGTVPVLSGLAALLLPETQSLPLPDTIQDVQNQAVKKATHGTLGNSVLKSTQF
assay_method_text: Inhibition of human URAT1-mediated urate uptake in HEK293 cells by competitive inhibition assay
quantity_name: Ki (µM)
Field format: number, assumed µM, no unit text.

State its Ki on Solute carrier family 22 member 12 (Homo sapiens, UniProt Q96S37): O=c1c(O)c(-c2ccc(O)cc2O)oc2cc(O)cc(O)c12 5.74
